The following compounds are listed with their measured melting point values.

Problem: Item Cn1cc(-c2cnc3c(NC(=O)NC4CC(F)(F)C4)ccnc3c2)cn1 has what recorded melting point?
Result: 229 to 230 °C

Problem: Item Cn1cc(-c2cnc3c(NC(=O)NC4CC4)ccnc3c2)cn1 has what recorded melting point?
Result: 223 to 224 °C

Problem: Item Cn1cc(-c2cnc3c(NC(=O)NC(C)(C)C)ccnc3c2)cn1 has what recorded melting point?
Result: 215 to 216 °C

Problem: Item CCNC(=O)Nc1ccnc2cc(-c3ccc(OC)c(OC)c3)cnc12 has what recorded melting point?
Result: 215 to 216 °C

Problem: Item O=C(Nc1ccnc2cc(-c3ccnc(F)c3)cnc12)NC1CC1 has what recorded melting point?
Result: 226 to 229 °C

Problem: Item CCNC(=O)Nc1ccnc2cc(-c3cnn(C)c3)cnc12 has what recorded melting point?
Result: 215 to 216 °C

Problem: Item O=C(Nc1ccnc2cc(-c3ccsc3)cnc12)NC1CC1 has what recorded melting point?
Result: 228 to 229 °C

Problem: Item CCNC(=O)Nc1ccc2ncc(-c3ccc(OC)c(OC)c3)cc2n1 has what recorded melting point?
Result: 218 to 219 °C

Problem: Item CCNC(=O)Nc1ccnc2cc(-c3cc(Cl)c(O)c(Cl)c3)cnc12 has what recorded melting point?
Result: > 300 °C

Problem: Item CCCCCCNC(=O)Nc1ccnc2cc(-c3cnn(C)c3)cnc12 has what recorded melting point?
Result: 188 to 189 °C

Problem: Item COc1ccc(-c2cnc3ccc(NC(=O)NC(C)(C)C)nc3c2)cc1OC has what recorded melting point?
Result: 279 to 280 °C

Problem: Item O=C(Nc1ccnc2cc(-c3ccc4[nH]ccc4c3)cnc12)NC1CC1 has what recorded melting point?
Result: 214 to 215 °C

Problem: Item COc1cc(-c2cnc3ccc(NC(=O)NC(C)(C)C)nc3c2)ccc1O has what recorded melting point?
Result: 286 to 287 °C

Problem: Item Cn1cc(-c2cnc3c(NC(=O)NC4CCCCC4)ccnc3c2)cn1 has what recorded melting point?
Result: 200 to 201 °C

Problem: Item COc1ccc(-c2cnc3c(NC(=O)NC(C)(C)C)ccnc3c2)cc1OC has what recorded melting point?
Result: 215 to 216 °C

Problem: Item Cn1cc(-c2cnc3c(NC(=O)NCC(F)(F)F)ccnc3c2)cn1 has what recorded melting point?
Result: > 300 °C

Problem: Item O=C(Nc1ccnc2cc(-c3cn[nH]c3)cnc12)NC1CC1 has what recorded melting point?
Result: 229 to 231 °C

----------
- target_of_assay: Aurora-B (Homo sapiens)
- Construct: in some cases as full-length kinases, in some cases as truncated fragments; purchased Upstate/Millipore #14-835
- Sequence (Q96GD4 whole entry, the tested form may be a part): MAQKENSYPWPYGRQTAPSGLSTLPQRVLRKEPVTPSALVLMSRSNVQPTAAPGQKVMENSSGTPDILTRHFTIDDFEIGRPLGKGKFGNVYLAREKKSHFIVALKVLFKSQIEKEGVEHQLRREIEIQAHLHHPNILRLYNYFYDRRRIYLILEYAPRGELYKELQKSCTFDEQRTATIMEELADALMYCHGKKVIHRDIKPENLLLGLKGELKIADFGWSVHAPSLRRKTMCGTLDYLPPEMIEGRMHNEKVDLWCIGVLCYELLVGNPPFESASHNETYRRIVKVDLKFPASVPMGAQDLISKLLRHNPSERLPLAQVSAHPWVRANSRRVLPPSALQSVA
- assay_text: Cell-free kinase assay (ALPHA technology), Aurora-B
- Assay type: biochemical
- study_conditions: at 10 μM ATP; read-out: IC50 Aurora-B
The following compounds are listed with their measured log10 IC50 values.
All values: log10 IC50 [nM].

Some solved entries appear below for comparison.
record_smiles: CCNC(=O)Nc1ccnc2cc(-c3ccc(OC)c(OC)c3)cnc12
endpoint_value: 2.13
--
record_smiles: Cn1cc(-c2cnc3c(NC(=O)NC(C)(C)C)ccnc3c2)cn1
endpoint_value: 2.05
--
record_smiles: COc1ccc(-c2cnc3ccc(NC(=O)NC(C)(C)C)nc3c2)cc1OC
endpoint_value: 2.91
--
record_smiles: COc1cc(-c2cnc3ccc(NC(=O)NC(C)(C)C)nc3c2)ccc1O
endpoint_value: 2.36
--
record_smiles: CCCCNC(=O)Nc1ccnc2cc(-c3cnn(C)c3)cnc12
endpoint_value: 2.21
--
record_smiles: Cn1cc(-c2cnc3c(NC(=O)Nc4ccccc4)ccnc3c2)cn1
endpoint_value: 3.10
--
record_smiles: CCNC(=O)Nc1ccnc2cc(-c3cc(Cl)c(O)c(Cl)c3)cnc12
endpoint_value: 2.36
--
record_smiles: CCCNC(=O)Nc1ccnc2cc(-c3cnn(C)c3)cnc12
endpoint_value: 1.41

Next compound, please.
Problem: Item O=C(Nc1ccnc2cc(-c3ccsc3)cnc12)NC1CC1 has what recorded log10 IC50?
Result: 2.01

These data points were gathered from patent US8461178B2.
